Molecular target: aldose reductase (human recombinant, expressed in SF 9 cells) (Homo sapiens)
Assay: Aldose reductase assay, NADPH dependent reduction of glyceraldehyde
Assay type: biochemical
Settings: substrate glyceraldehyde 0.050-6 mM, 37° C., Lineweaver Burk analysis, read-out: Ki, inhibition of aldose reductase catalyzed reduction of glyceraldehyde to aldose
observationType: pKi
Answers are plain numbers, as −log10 of the molar value.

Exam item: # pKi lookup, item O=S(=O)([O-])CCSSCCS(=O)(=O)[O-].[Na+].[Na+] [Dimesna, disodium 2,2'-dithiobis ethane sulfonate]
Marked response: 4.81

====

Target: aldose reductase (human recombinant, expressed in SF 9 cells) (Homo sapiens, UniProt P15121)
Assay: Aldose reductase assay, reduction of glucose to sorbitol (NADPH oxidation, absorbance at 340 nm)
Format: biochemical
Conditions: substrate glucose 10-150 mM, NADPH 0.15 mM, pH 6.2, 37° C., Lineweaver Burk analysis; read-out: Ki, inhibition of aldose reductase catalyzed reduction of glucose to sorbitol
observationType: Ki

Exam item: // Ki lookup, key: O=S(=O)([O-])CCSSCCS(=O)(=O)[O-].[Na+].[Na+] [Dimesna, disodium 2,2'-dithiobis ethane sulfonate]
Marked response: 32 µM

meta.source: patent US6031006A
